- SYSTEM_NAME: CDK2/cyclin A (Homo sapiens)
- Construct: cyclin A: E. coli
- TEST_DESCRIPTION: Inhibition of CDK2/Cyclin A Retinoblastoma Kinase Activity
- ASSAY_CONDITIONS: apparent Ki
RECORDED_METRIC: Ki
In your response, the unit should come after the numeric value.

COMPOUND: Cc1ccccc1-c1ccc2[nH]nc(-c3ccccc3)c2c1
RECORDED_METRIC: Ki
RESULT: 2600 nM

Which Ki value belongs to Cc1ccncc1-c1ccc2[nH]nc(/C=C/c3ccccc3)c2c1 ?
29 nM

Which Ki value belongs to CC(C)NCc1cccc2[nH]c(-c3n[nH]c4ccc(-c5cncc6ccccc56)cc34)nc12 ?
1 nM

Which Ki value belongs to Cc1c(-c2ccc3[nH]nc(-c4nc5ccccc5[nH]4)c3c2)cnc2ccccc12 ?
27 nM
